Experiment: Cytotoxicity against human HepG2 cells assessed as reduction in cell viability incubated overnight by MTT assay
Format: toxicity, cell-based
endpoint-label: IC50

| chemical-string | result |
| --- | --- |
| Cl.O=C(COc1ccc(-c2nc3ccc(C4=NCCCN4)cc3s2)cc1F)c1ccccc1 | > 100 µM |

----------
Tested on: Staphylococcus aureus
Assay: Antibacterial activity against Staphylococcus aureus ATCC 29213 incubated assessed as inhibition of bacterial growth for 20 to 22 hrs by broth microdilution method
Type: functional
Settings: time 20-22 hrs
This listing pairs molecules with measured MIC.
endpoint-label: MIC

| chemical-string | target | result |
| --- | --- | --- |
| COc1cc(-c2nc3ccc(C4=NCCCN4)cc3s2)ccc1OCc1cn(Cc2ccccc2)nn1.Cl | Staphylococcus aureus | > 128 µg/mL |
| COc1cc(-c2nc3ccc(C4=NCCCN4)cc3s2)ccc1OCc1c[nH]nn1.Cl | Staphylococcus aureus | > 128 µg/mL |
| Cl.c1cc(-c2nc3ccc(C4=NCCCN4)cc3s2)ccc1OCc1c[nH]nn1 | Staphylococcus aureus | > 128 µg/mL |
| COc1cc(-c2nc3ccc(C4=NCCCN4)cc3s2)ccc1OCc1ccccn1.Cl | Staphylococcus aureus | > 128 µg/mL |
